For each record, write down the corresponding OD450 nm.
measured_on: T1, human IL-12Rβ1-his (Acro Biosystems), biotinylated (human, UniProt P42701 24-545, biotinylated)
T1 construct: bought; captured on Neutravidin in the ELISA; also called Bio-huIL-12Rβ1-His
assay_protocol: ELISA, periplasmic extract

Which OD450 nm reading was recorded for the binder VHH263B1 (VHH) VHH: EVQLVESGGGLVQAGGSLRLSCAASGSKFSFNAMGWYRQTPGKQRELVAIIINGDMINYADSVKGRFTISRDNAKNTMYLQMNSLKPEDTAVYYCKMTRYVYDYWGQGTQVTVSS ? 0.144

One more binder: VHH58B1 (VHH) VHH: QVQLVESGGGLVQAGGSLRLSCAAPGRYAVGWFRQAPGKEYEFVAAITVSGGSKYYEDSVKGRFAISRDNAKNTVYLQMNSLKAEDTAVYYCAARTPKFGSGWYNRRGEYDYWGQGTQVTVSS 3.03

Then VHH172B1 (VHH) VHH: QVQLVESGGGLVQAGGSLRLSCAAPGRYAVGWFRQAPGKEYEFVAAITVSGGSKYYEDSVKGRFTISRDNAKNTVYLEMNSLKAEDTAVYYCAARTPKFGSGWYNRRGEYDYWGQGTQVAVSS ? 3.14

Next binder: VHH25B1 (VHH) VHH: QVQLQESGGALVQPGGSLRLSCVVSGFTSDYFAIGWFRQAPGKEREGVSCIGSSDGSTIYSDSVKGRFTISRDNAKNTVYLQMNSLKPEDTGVYYCALDRGRRTIIGYACYATMKYWGKGTPVTVSS 0.479
